Values compiled from paper PMC8593021.

pKd: recorded values
Biological target: UniProt Q8TE23
Sequence (Q8TE23 20-839): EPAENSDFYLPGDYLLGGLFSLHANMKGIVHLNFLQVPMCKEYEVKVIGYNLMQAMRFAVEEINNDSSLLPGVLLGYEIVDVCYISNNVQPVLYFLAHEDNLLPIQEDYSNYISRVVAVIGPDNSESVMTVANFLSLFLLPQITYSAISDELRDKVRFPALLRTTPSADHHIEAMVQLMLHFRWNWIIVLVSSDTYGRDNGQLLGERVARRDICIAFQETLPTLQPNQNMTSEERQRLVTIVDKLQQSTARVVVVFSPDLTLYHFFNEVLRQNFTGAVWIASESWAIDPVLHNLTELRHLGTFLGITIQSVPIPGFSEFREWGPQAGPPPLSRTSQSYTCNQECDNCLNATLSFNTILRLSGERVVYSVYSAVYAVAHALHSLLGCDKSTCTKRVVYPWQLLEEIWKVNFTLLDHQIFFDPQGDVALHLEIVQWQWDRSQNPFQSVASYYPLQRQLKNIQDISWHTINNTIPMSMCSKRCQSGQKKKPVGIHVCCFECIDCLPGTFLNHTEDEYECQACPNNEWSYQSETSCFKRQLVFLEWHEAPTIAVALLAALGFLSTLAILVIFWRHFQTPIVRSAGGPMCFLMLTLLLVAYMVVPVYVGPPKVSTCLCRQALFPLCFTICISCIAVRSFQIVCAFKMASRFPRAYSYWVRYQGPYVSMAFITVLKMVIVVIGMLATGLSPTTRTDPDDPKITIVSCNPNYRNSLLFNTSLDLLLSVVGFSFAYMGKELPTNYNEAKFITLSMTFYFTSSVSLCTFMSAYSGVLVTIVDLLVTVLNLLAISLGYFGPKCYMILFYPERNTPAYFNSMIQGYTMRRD
Assay: Intrinsic tryptophan fluorescence ligand binding to purified detergent-solubilized hTAS1R2
Set-up: made in house
Settings: purified FLAG-tagged hTAS1R2 0.10 µM in PBS, 0.1% LMNG, 20 °C; λex 280 nm, λem 340 nm
pKd: −log10 of the molar value.
quantityMeasured: pKd

[[record]]
compound = "CC1=CC(=O)NS(=O)(=O)O1"
quantitymeasured = "pKd"
reportedvalue = 3.79

[[record]]
compound = "OC[C@H]1O[C@H](O[C@]2(CCl)O[C@H](CCl)[C@@H](O)[C@@H]2O)[C@H](O)[C@@H](O)[C@H]1Cl"
quantitymeasured = "pKd"
reportedvalue = 4.54

[[record]]
compound = "C=C(C)C1CC=C(/C=N/O)CC1 (stereo in doubt)"
quantitymeasured = "pKd"
reportedvalue = 3.43

[[record]]
compound = "COC(=O)[C@H](Cc1ccccc1)NC(=O)[C@H](CC(=O)O)NCCC(C)(C)C"
quantitymeasured = "pKd"
reportedvalue = 5.56

